Entries and their pIC50
- System name: recombinant human COX-1 (Homo sapiens, UniProt P23219)
- Sequence (P23219 24-599): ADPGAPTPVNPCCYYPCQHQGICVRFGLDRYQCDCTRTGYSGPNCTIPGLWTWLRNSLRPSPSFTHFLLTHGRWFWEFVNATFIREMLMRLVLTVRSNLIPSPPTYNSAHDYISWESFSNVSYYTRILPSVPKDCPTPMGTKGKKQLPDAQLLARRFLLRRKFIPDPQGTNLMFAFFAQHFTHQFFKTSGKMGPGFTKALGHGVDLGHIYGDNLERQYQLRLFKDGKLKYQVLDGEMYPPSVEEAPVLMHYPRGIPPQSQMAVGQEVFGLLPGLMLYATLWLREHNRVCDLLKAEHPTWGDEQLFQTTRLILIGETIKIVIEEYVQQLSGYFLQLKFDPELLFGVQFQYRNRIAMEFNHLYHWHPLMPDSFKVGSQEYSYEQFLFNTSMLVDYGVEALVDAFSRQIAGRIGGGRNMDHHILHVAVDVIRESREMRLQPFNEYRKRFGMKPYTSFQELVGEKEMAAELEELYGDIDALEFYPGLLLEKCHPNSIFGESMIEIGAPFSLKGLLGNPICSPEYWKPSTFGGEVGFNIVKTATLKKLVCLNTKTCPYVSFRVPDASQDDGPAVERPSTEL
- Test name: In vitro enzyme assay, recombinant human COX-1
- Assay type: biochemical
- Assay conditions: read-out: IC50 against recombinant human COX-1
# reply with the number alone; pIC50 is -log10 of concentration in mol/L

Example entries begin here.
molecule="NS(=O)(=O)c1ccc(-n2nc(COc3ccccc3O)cc2-c2ccccc2)cc1 [Compound 6b1]" measured_number=3.71
molecule="Cc1ccc(-c2cc(COCc3ccccc3O)nn2-c2ccc(S(N)(=O)=O)cc2)cc1 [Compound 7a1]" measured_number=5.31
molecule="Cc1ccc(-c2cc(COc3ccc(O)cc3)nn2-c2ccc(S(N)(=O)=O)cc2)cc1 [Compound 6a3]" measured_number=4.42

// fetch recombinant human COX-1 (Homo sapiens, UniProt P23219) pIC50 for Cc1ccc(-c2cc(COc3ccc4c(=O)c(O)c(-c5ccccc5)oc4c3)nn2-c2ccc(S(N)(=O)=O)cc2)cc1 [Compound 6a4] 4.80

NS(=O)(=O)c1ccc(-n2nc(COc3cccc(O)c3)cc2-c2ccccc2)cc1 [Compound 6b2] , same question. 3.84

Cc1ccc(-c2cc(COc3cccc(O)c3)nn2-c2ccc(S(N)(=O)=O)cc2)cc1 [Compound 6a2] , same question. 4.56

COc1ccccc1COCc1cc(-c2ccc(C)cc2)n(-c2ccc(S(N)(=O)=O)cc2)n1 [Compound 7a3] , same question. 4.70

NS(=O)(=O)c1ccc(-n2nc(COc3ccc(O)cc3)cc2-c2ccccc2)cc1 [Compound 6b3] , same question. 7.55

---

- Test system: human liver microsomes
- Test name: Glucuronidation by human liver microsomes
- Assay type: in vitro ADME
Assign Yes to entries whose Glucuronidation rates by liver microsomes (Mean) meets or exceeds 3000 pmol/mg/min; assign No to the rest.

Known results for compounds:
compound="Cc1ccc(-c2cc(COc3ccc4c(=O)c(O)c(-c5ccccc5)oc4c3)nn2-c2ccc(S(N)(=O)=O)cc2)cc1 [Compound 6a4]" group_label=No
compound="Cc1ccc(-c2cc(COCc3ccccc3O)nn2-c2ccc(S(N)(=O)=O)cc2)cc1 [Compound 7a1]" group_label=No
compound="Cc1ccc(-c2cc(COc3ccc(O)cc3)nn2-c2ccc(S(N)(=O)=O)cc2)cc1 [Compound 6a3]" group_label=No
compound="Cc1ccc(-c2cc(COc3cccc(O)c3)nn2-c2ccc(S(N)(=O)=O)cc2)cc1 [Compound 6a2]" group_label=No

Quick check, Glucuronidation rates by liver microsomes (Mean) >= 3000 pmol/mg/min? Cc1ccc(-c2cc(COc3ccccc3O)nn2-c2ccc(S(N)(=O)=O)cc2)cc1 [Compound 6a1] Yes

---

Entries and their Glucuronidation rates by liver microsomes (Mean)
- System: rat liver microsomes
- Test name: Glucuronidation by rat liver microsomes
- Format: in vitro ADME
API: value field is a number in pmol/mg/min; no unit string.

Example entries begin here.
smiles_representation=COc1ccc(-c2cc(COc3cccc(O)c3)nn2-c2ccc(S(N)(=O)=O)cc2)cc1 units_label=pmol/mg/min measured_number=3092
smiles_representation=Cc1ccc(-c2cc(COCc3ccccc3O)nn2-c2ccc(S(N)(=O)=O)cc2)cc1 units_label=pmol/mg/min measured_number=1050
smiles_representation=Cc1ccc(-c2cc(COc3cccc(O)c3)nn2-c2ccc(S(N)(=O)=O)cc2)cc1 units_label=pmol/mg/min measured_number=3570
smiles_representation=Cc1ccc(-c2cc(COc3ccc4c(=O)c(O)c(-c5ccccc5)oc4c3)nn2-c2ccc(S(N)(=O)=O)cc2)cc1 units_label=pmol/mg/min measured_number=4763
smiles_representation=NS(=O)(=O)c1ccc(-n2nc(COc3cccc(O)c3)cc2-c2ccccc2)cc1 units_label=pmol/mg/min measured_number=4132
smiles_representation=Cc1ccc(-c2cc(COc3ccccc3O)nn2-c2ccc(S(N)(=O)=O)cc2)cc1 units_label=pmol/mg/min measured_number=6299
smiles_representation=Cc1ccc(-c2cc(COc3ccc(O)cc3)nn2-c2ccc(S(N)(=O)=O)cc2)cc1 units_label=pmol/mg/min measured_number=590

Now look at this one.
// fetch rat liver microsomes Glucuronidation rates by liver microsomes (Mean) for COc1ccc(-c2cc(COc3ccc(O)cc3)nn2-c2ccc(S(N)(=O)=O)cc2)cc1 934

---

Entries and their Glucuronidation rates by liver microsomes (Mean)
- System: rat liver microsomes
- Test name: Glucuronidation by rat liver microsomes
- Type: in vitro ADME
API: value field is a number in pmol/mg/min; no unit string.

smiles_representation=COc1ccc(-c2cc(COc3ccccc3O)nn2-c2ccc(S(N)(=O)=O)cc2)cc1 measured_number=7026
smiles_representation=NS(=O)(=O)c1ccc(-n2nc(COc3ccccc3O)cc2-c2ccccc2)cc1 measured_number=7453

Now look at this one.
Please look up its Glucuronidation rates by liver microsomes (Mean): NS(=O)(=O)c1ccc(-n2nc(COc3ccc(O)cc3)cc2-c2ccccc2)cc1 656

---

- Tested on: rat colon microsomes
- Test name: Glucuronidation by rat colon microsomes
- Type: in vitro ADME
Property name: Glucuronidation rates by colon microsomes (Mean)

Example entries begin here.
smiles_representation=Cc1ccc(-c2cc(COc3ccc4c(=O)c(O)c(-c5ccccc5)oc4c3)nn2-c2ccc(S(N)(=O)=O)cc2)cc1 system_name="rat colon microsomes" result="571 pmol/mg/min"
smiles_representation=Cc1ccc(-c2cc(COCc3ccccc3O)nn2-c2ccc(S(N)(=O)=O)cc2)cc1 system_name="rat colon microsomes" result="160 pmol/mg/min"
smiles_representation=Cc1ccc(-c2cc(COc3ccc(O)cc3)nn2-c2ccc(S(N)(=O)=O)cc2)cc1 system_name="rat colon microsomes" result="301 pmol/mg/min"
smiles_representation=Cc1ccc(-c2cc(COc3ccccc3O)nn2-c2ccc(S(N)(=O)=O)cc2)cc1 system_name="rat colon microsomes" result="1111 pmol/mg/min"

Please look up its Glucuronidation rates by colon microsomes (Mean): Cc1ccc(-c2cc(COc3cccc(O)c3)nn2-c2ccc(S(N)(=O)=O)cc2)cc1 1199 pmol/mg/min
